Kindly state Growth Rate for each of the entries shown.
Tested on: Fibroblast
test_details: Incucyte cell viability with human fibroblast; further: filed as whole numbers so only -1 and 0 and 1 occur
Type: toxicity, cell-based
applied_conditions: 12 h, 10 µM, compound concentration 10 uM, replicate number 1, timepoint 12 hours
Answers are plain numbers.

Worked cases, Growth Rate given:
smiles_repr | Growth Rate
C=C1/C(=C\C=C2/CCC[C@]3(C)[C@@H]([C@H](C)/C=C/[C@H](C)C(C)C)CC[C@@H]23)C[C@@H](O)C[C@@H]1O | 1
CCC(=N\O)/C(C)=C/c1ccc(F)c(C)c1 | 0
C#C[C@]1(O)CC[C@H]2[C@@H]3CCc4cc(O)ccc4[C@H]3CC[C@@]21C | 0

Next:
Q: Quick one: Growth Rate for `N[C@@H](Cc1cc(I)c(Oc2ccc(O)c(I)c2)c(I)c1)C(=O)O` ?
A: 0

----------
Tested on: Fibroblast
test_details: Multiplex assay against human fibroblast
Format: toxicity, cell-based
applied_conditions: 12 h, 1 µM, compound concentration 1 uM, replicate 1
Lab note: compare Population Membrane Permeable-Phenotype (%) against 20%. Equal or greater, write Criterion met. Smaller, write Criterion not met.

Solved cases below.
molecule | answer_label
CN(C)C(=O)C(CCN1CCC(O)(c2ccc(Cl)cc2)CC1)(c1ccccc1)c1ccccc1.Cl [LOPERAMIDE HYDROCHLORIDE] | Criterion not met
Cc1cc(C)c(S(=O)(=O)N(Cc2ccc(-c3cccc(S(C)(=O)=O)c3)cc2)Cc2ccc(C(F)(F)F)o2)c(C)c1 | Criterion not met
Cc1ccc(C(=O)Nc2cccc(C(F)(F)F)c2)cc1Nc1nc(-c2cccnc2)nc2c1cnn2C | Criterion met
CCn1c(=O)c(-c2ccc(-c3cncs3)cc2Cl)cc2cnc(Nc3ccc(N4CCN(C)CC4)cc3)nc21 | Criterion not met

Q: Is reported Population Membrane Permeable-Phenotype (%) greater than or equal to 20% here: `COc1ccc(-c2ccc3c(N4CCOCC4)nc(N4C[C@@H](C)O[C@@H](C)C4)nc3n2)cc1CO`
A: Criterion not met

Q: Does Population Membrane Permeable-Phenotype (%) meet or surpass 20% for `CN([C@@H](Cc1ccc(OS(=O)(=O)c2cccc3cnccc23)cc1)C(=O)N1CCN(c2ccccc2)CC1)S(=O)(=O)c1cccc2cnccc12` ?
A: Criterion met

Q: Does the molecule CN1CCC(=C2c3ccccc3CC(=O)c3sccc32)CC1.O=C(O)/C=C/C(=O)O [KETOTIFEN FUMARATE] have recorded Population Membrane Permeable-Phenotype (%) that is 20% or more?
A: Criterion met

----------
Record form. Attribute: Population Mitotic Cells (%). Fill in for each entry.
System: Fibroblast
test_details: Multiplex assay against human fibroblast
Format: toxicity, cell-based
applied_conditions: 12 h, 1 µM, compound concentration 1 uM, replicate 1
Express the reported value numerically, then name its unit.

Could you report Population Mitotic Cells (%) for every entry in the following list?
1. CCCS(=O)(=O)Nc1ccc(F)c(C(=O)c2c[nH]c3ncc(Cl)cc23)c1F
2. O=C1NC(=O)C(c2cnc3ccccn23)=C1c1cn2c3c(cc(F)cc13)CN(C(=O)N1CCCCC1)CC2
3. CCc1cccc(CC)c1NC(=O)c1nn(C)c2c1CCc1cnc(Nc3ccc(N4CCN(C)CC4)cc3OC)nc1-2
4. NC(=O)c1cccc(-c2cc(Nc3ccc(OC(F)(F)F)cc3)ncn2)c1
5. S=C(NCCCc1c[nH]cn1)NCCCN(Cc1ccc(Cl)c(Cl)c1)c1ccc(Br)cn1

A:
1: 44%; 2: 40%; 3: 54%; 4: 20%; 5: 47%

----------
Test system: HEK-293T
test_details: Multiplex assay against HEK293T
Type: toxicity, cell-based
applied_conditions: human, 24 h, 10 µM, compound concentration 10 uM, replicate 1
The threshold is 4%. Values of Population Membrane Permeable-Phenotype (%) beneath it are tagged Met; values meeting or exceeding it are tagged Not met.

Q: Threshold test, Population Membrane Permeable-Phenotype (%) < 4%: `O=C1NC(=O)C(c2cnc3ccccn23)=C1c1cn2c3c(cc(F)cc13)CN(C(=O)N1CCCCC1)CC2`
A: Met

Q: Hello, I'm reviewing records and need to know if Population Membrane Permeable-Phenotype (%) of `O=C(Nc1ccc(-n2nc(-c3cccnc3)cc2C(F)(F)F)cn1)c1ccc(-c2ccccc2)c(F)c1` is below 4%. Could you check?
A: Met

Q: Threshold test, Population Membrane Permeable-Phenotype (%) < 4%: `Cl.O=c1c2cccn2c2ccccc2n1CCCN1CCC(c2ccc(Cl)cc2)CC1`
A: Not met

Q: Consider `COc1ccc(-c2ccc3c(N4CCOCC4)nc(N4C[C@@H](C)O[C@@H](C)C4)nc3n2)cc1CO` . Does its Population Membrane Permeable-Phenotype (%) lie strictly below 4%?
A: Not met

Q: I wonder whether `COc1cc(N2CCN(C)CC2)ccc1Nc1ncc2c(n1)N(C)c1ccccc1C(=O)N2C` has Population Membrane Permeable-Phenotype (%) below 4%. Can you tell?
A: Not met

Q: Could you please tell me whether Population Membrane Permeable-Phenotype (%) recorded for `C=CCn1c(=O)c2cnc(Nc3ccc(N4CCN(C)CC4)cc3)nc2n1-c1cccc(C(C)(C)O)n1` is less than 4%?
A: Not met

Q: Consider `O=C(Nc1ccc(Cl)cc1)Nc1cccc(-c2cccc(N3CCCC3)n2)c1` . Does its Population Membrane Permeable-Phenotype (%) lie strictly below 4%?
A: Met

Q: # check: Population Membrane Permeable-Phenotype (%) < 4% for CN1C2CCC1CC(OC(c1ccc(F)cc1)c1ccc(F)cc1)C2.Cl (stereo not given)
A: Met

----------
Tested on: Fibroblast
test_details: Multiplex assay against human fibroblast
Assay type: toxicity, cell-based
applied_conditions: 24 h, 1 µM, compound concentration 1 uM, replicate 1
measured_endpoint: Population Apoptotic (%)

compound | measured_endpoint | assay_value
CCN1CCN(Cc2ccc(Nc3ncc(F)c(-c4cc(F)c5nc(C)n(C(C)C)c5c4)n3)nc2)CC1.CS(=O)(=O)O | Population Apoptotic (%) | 44%
CNc1cc(Oc2cc(C(=O)Nc3cc(N4CCN(C)CC4)cc(C(F)(F)F)c3)ccc2C)ncn1 | Population Apoptotic (%) | 61%
Cn1nc(C(F)(F)F)cc1-c1cnc(N2CCc3cc(S(=O)(=O)Nc4c(F)cc(Cl)cc4F)cc(N4CCCC4=O)c32)nc1 | Population Apoptotic (%) | 51%

Hey, quick one: what's Population Apoptotic (%) for each of these?
1. COc1ccc(-c2ccc3c(N4CCOCC4)nc(N4C[C@@H](C)O[C@@H](C)C4)nc3n2)cc1CO
2. CCOc1cc(C(=O)N2CCC(N3CCN(C)CC3)CC2)ccc1Nc1ncc2c(n1)N(C1CCCC1)c1ccccc1C(=O)N2C
3. C=C1/C(=C\C=C2/CCC[C@]3(C)[C@@H]([C@H](C)/C=C/[C@H](C)C(C)C)CC[C@@H]23)C[C@@H](O)C[C@@H]1O

A:
67%
62%
38%

Count: 2. Required value per item: Population Apoptotic (%).
1. COc1cc2ncnc(Nc3ccc(F)c(Cl)c3)c2cc1NC(=O)/C=C/CN1CCCCC1 [DACOMITINIB ANHYDROUS]
2. O=C(Nc1ccc(-c2ccnc(Nc3ccc(N4CCOCC4)cc3)n2)cc1)[C@@H]1CCCN1

A:
1. 72%
2. 52%

----------
Please respond with reported Population Pyknosed Nuclei (%) for every item in the list.
Tested on: Fibroblast
test_details: Multiplex assay against human fibroblast
Assay type: toxicity, cell-based
applied_conditions: 48 h, 10 µM, compound concentration 10 uM, replicate 2
Give bare numbers, in %.

compound | system_under_test | Population Pyknosed Nuclei (%)
C=C1/C(=C\C=C2/CCC[C@]3(C)[C@@H]([C@H](C)/C=C/[C@H](C)C(C)C)CC[C@@H]23)C[C@@H](O)C[C@@H]1O | Fibroblast | 1

State recorded Population Pyknosed Nuclei (%) for all listed compounds.
1. CCCS(=O)(=O)c1nc(NC2CC2)cc(-c2ccc3c(ccn3C3CC(C)(C)NC(C)(C)C3)c2)n1
2. Cc1cn(-c2cc(NC(=O)c3ccc(C)c(Nc4nccc(-c5cccnc5)n4)c3)cc(C(F)(F)F)c2)cn1
3. COCC(=O)NC/C=C/c1ccc2ncnc(Nc3ccc(Oc4ccc(C)nc4)c(C)c3)c2c1
4. CCOC(=O)c1c(C)[nH]c2ccc3c(c12)CN1CCc2cc(OC)ccc2C1O3 (centres undefined)
5. CN1CCN(C(=O)C(C)(C)c2ccc(C(=O)Nc3cn4cc(-c5ccncc5)ccc4n3)cc2)CC1
6. O=C1NC(=O)C(c2cnc3ccccn23)=C1c1cn2c3c(cc(F)cc13)CN(C(=O)N1CCCCC1)CC2
7. CCn1c(=O)c(-c2ccc(-c3cncs3)cc2Cl)cc2cnc(Nc3ccc(N4CCN(C)CC4)cc3)nc21

A:
[5, 6, 3, 1, 12, 27, 0]

# return Population Pyknosed Nuclei (%) for each item in the list
1. CNc1cc(Oc2cc(C(=O)Nc3cc(N4CCN(C)CC4)cc(C(F)(F)F)c3)ccc2C)ncn1
2. O=C1N/C(=N/c2ccccc2F)S/C1=C\c1ccc(C(=O)O)cc1

A:
4
6

Consider the following items and state reported Population Pyknosed Nuclei (%) for each.
1. CCN1CCN(Cc2ccc(Nc3ncc(F)c(-c4cc(F)c5nc(C)n(C(C)C)c5c4)n3)nc2)CC1.CS(=O)(=O)O
2. CCCn1c(=O)c2[nH]c(-c3cnn(Cc4cccc(C(F)(F)F)c4)c3)nc2n(CC)c1=O
3. CN(C)C(=O)C(CCN1CCC(O)(c2ccc(Cl)cc2)CC1)(c1ccccc1)c1ccccc1.Cl [LOPERAMIDE HYDROCHLORIDE]
4. CN1C2CCC1CC(OC(c1ccc(F)cc1)c1ccc(F)cc1)C2.Cl (centres undefined)

A:
[13, 4, 9, 0]
